Test: total protein half-life in vivo (active degradation + dilution); higher = more stable protein
Conditions: E. coli NCM3722 delta-lon; growth: N-lim chemostat; doubling time 6 h
READOUT_NAME: total protein half-life in vivo (h)
One number for each entry, in h.

Consider the worked cases shown below.
{"MONOMER_SEQUENCE": "MRFYRPLGRISALTFDLDDTLYDNRPVILRTEREALTFVQNYHPALRSFQNEDLQRLRQAVREAEPEIYHDVTRWRFRSIEQAMLDAGLSAEEASAGAHAAMINFAKWRSRIDVPQQTHDTLKQLAKKWPLVAITNGNAQPELFGLGDYFEFVLRAGPHGRSKPFSDMYFLAAEKLNVPIGEILHVGDDLTTDVGGAIRSGMQACWIRPENGDLMQTWDSRLLPHLEISRLASLTSLI [P0ADP0]", "total protein half-life in vivo (h)": 4.87}
{"MONOMER_SEQUENCE": "MARTKLKFRLHRAVIVLFCLALLVALMQGASWFSQNHQRQRNPQLEELARTLARQVTLNVAPLMRTDSPDEKRIQAILDQLTDESRILDAGVYDEQGDLIARSGESVEVRDRLALDGKKAGGYFNQQIVEPIAGKNGPLGYLRLTLDTHTLATEAQQVDNTTNILRLMLLLSLAIGVVLTRTLLQGKRTRWQQSPFLLTASKPVPEEEESEKKE [P0AGC7]", "total protein half-life in vivo (h)": 4.57}
{"MONOMER_SEQUENCE": "MTDMNILDLFLKASLLVKLIMLILIGFSIASWAIIIQRTRILNAAAREAEAFEDKFWSGIELSRLYQESQGKRDNLTGSEQIFYSGFKEFVRLHRANSHAPEAVVEGASRAMRISMNRELENLETHIPFLGTVGSISPYIGLFGTVWGIMHAFIALGAVKQATLQMVAPGIAEALIATAIGLFAAIPAVMAYNRLNQRVNKLELNYDNFMEEFTAILHRQAFTVSESNKG [P0ABU9]", "total protein half-life in vivo (h)": 6.83}

Now look at this one.
# query: total protein half-life in vivo of entry "MHVTLVEINVHEDKVDEFIEVFRQNHLGSVQEEGNLRFDVLQDPEVNSRFYIYEAYKDEDAVAFHKTTPHYKTCVAKLESLMTGPRKKRLFNGLMP"
3

* * *

Test: total protein half-life in vivo (active degradation + dilution); higher = more stable protein
Settings: wild type E. coli NCM3722; growth: N-lim chemostat; doubling time 12 h
Please provide measured total protein half-life in vivo for the entries that follow.

Some solved entries appear below for comparison.
{"MONOMER_SEQUENCE": "MKCKRLNEVIELLQPAWQKEPDLNLLQFLQKLAKESGFDGELADLTDDILIYHLKMRDSAKDAVIPGLQKDYEEDFKTALLRARGVIKE [P0ADP9]", "total protein half-life in vivo": "8.19 h"}
{"MONOMER_SEQUENCE": "MKRYTPDFPEMMRLCEMNFSQLRRLLPRNDAPGETVSYQVANAQYRLTIVESTRYTTLVTIEQTAPAISYWSLPSMTVRLYHDAMVAEVCSSQQIFRFKARYDYPNKKLHQRDEKHQINQFLADWLRYCLAHGAMAIPVY [P0ADU7]", "total protein half-life in vivo": "2.84 h"}

Which total protein half-life in vivo is reported for this sequence? "MATDSTQCVKKSRGRPKVFDRDAALDKAMKLFWQHGYEATSLADLVEATGAKAPTLYAEFTNKEGLFRAVLDRYIDRFAAKHEAQLFCEEKSVESALADYFAAIANCFTSKDTPAGCFMINNCTTLSPDSGDIANTLKSRHAMQERTLQQFLCQRQARGEIPPHCDVTHLAEFLNCIIQGMSISAREGASLEKLMQIAGTTLRLWPELVK"
2.32 h
